Recorded values, source patent US20080139456A1.

# systemName: Grb2 SH2 domain protein (Homo sapiens)
# Construct: made in house
# Sequence (P62993 60-152 limits assumed): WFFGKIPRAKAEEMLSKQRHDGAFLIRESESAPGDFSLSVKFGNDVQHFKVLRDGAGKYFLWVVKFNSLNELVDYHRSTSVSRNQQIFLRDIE
# measurementNotes: Biosensor (Biacore S51 surface plasmon resonance) direct binding to chip-bound Grb2 SH2 domain protein
# conditionParameters: binding affinity to Grb2 SH2 domain protein; complex binding kinetics, first of two Kd values; read-out: Kd (complex binding kinetics, first value)
assayReadout: Kd
Answer shape: numeric part, then the unit.

Problem: // output Kd; input NC(=O)CC1NC(=O)C2(CCCCC2)NC(=O)[C@@H](CC(=O)O)[C@@H](c2ccc(CP(=O)(O)O)cc2)/C=C/CCC2(CCCCC2)CNC1=O (stereo partly shown) [compound 24] ; system Grb2 SH2 domain protein (Homo sapiens)
Result: 9.3 nM
